- TEST_DESCRIPTION: Cmax in two-kidney two clip renovascular hypertensive Sprague-Dawley rat model at 5 mg/kg, po by HPLC-MS/MS analysis
- Format: ADME, organism-based
- Parameters: route oral, dose 5 mg/kg
- APPLIED_CONDITIONS: in vivo
QUANTITY_NAME: Cmax (ng/mL)
Field: numeric (ng/mL). Do not append units.

Recorded Cmax of CCOC(=O)[C@@H](Cc1ccc(F)cc1)NC(=O)[C@@H](CC1CCCCC1)NC(=O)[C@@H](C)NC(=O)/C=C/c1ccc(O)c(O)c1 , please. 80.6

###

- TEST_DESCRIPTION: Cmax in two-kidney two clip renovascular hypertensive Sprague-Dawley rat model at 30 mg/kg, po by HPLC-MS/MS analysis
- Assay type: ADME, organism-based
- Set-up: route oral, dose 30 mg/kg
- APPLIED_CONDITIONS: in vivo
QUANTITY_NAME: Cmax (ng/mL)
Field: numeric (ng/mL). Do not append units.

Recorded Cmax of CCOC(=O)[C@@H](Cc1ccc(F)cc1)NC(=O)[C@@H](CC1CCCCC1)NC(=O)[C@@H](C)NC(=O)/C=C/c1ccc(O)c(O)c1 , please. 446
